Test system: T24 (bladder)
Label key: satisfied means IC50 under 0.1 µg/mL; not satisfied means IC50 of 0.1 µg/mL or more.

Solved cases below.
MOLECULE	ASSAY SYSTEM	LABEL
O=P1(N(CCCl)CCCl)NCCCO1 (centres unmarked) [CYACT, cyclophosphamide]	T24 (bladder)	not satisfied
CO[C@@]12[C@H](COC(N)=O)C3=C(C(=O)C(C)=C(N)C3=O)N1C[C@@H]1N[C@@H]12	T24 (bladder)	satisfied
CC[C@@]1(O)C(=O)OCc2c1cc1n(c2=O)Cc2cc3c(CN(C)C)c(O)ccc3nc2-1	T24 (bladder)	satisfied
CCC1=C[C@@H]2CN(C1)Cc1c([nH]c3ccccc13)[C@@](C(=O)OC)(c1cc3c(cc1OC)N(C)[C@H]1[C@@](O)(C(=O)OC)[C@H](OC(C)=O)[C@]4(CC)C=CCN5CC[C@]31[C@@H]54)C2	T24 (bladder)	not satisfied

Here's the next entry for you.
Query: hey, is IC50 for CC(=O)O[C@@]12CO[C@@H]1C[C@H](O)[C@@]1(C)C(=O)[C@H](O)C3=C(C)[C@@H](OC(=O)[C@H](O)[C@@H](NC(=O)OC(C)(C)C)c4ccccc4)C[C@@](O)([C@@H](OC(=O)c4ccccc4)[C@H]21)C3(C)C lower than 0.1 µg/mL or not?
Result: not satisfied

---

Notes on IC50 obtained with H460 (lung).
Give bare numbers, in µg/mL.

Guide cases for IC50, answers given:
COMPOUND	OBSERVED MEASUREMENT
CC[C@@]1(O)C(=O)OCc2c1cc1n(c2=O)Cc2cc3c(CN(C)C)c(O)ccc3nc2-1 [Topotecan, topotecan]	0.0079
CO[C@@]12[C@H](COC(N)=O)C3=C(C(=O)C(C)=C(N)C3=O)N1C[C@@H]1N[C@@H]12 [Mitomycin, mitomycin-C]	0.009
CC(=O)O[C@@]12CO[C@@H]1C[C@H](O)[C@@]1(C)C(=O)[C@H](O)C3=C(C)[C@@H](OC(=O)[C@H](O)[C@@H](NC(=O)OC(C)(C)C)c4ccccc4)C[C@@](O)([C@@H](OC(=O)c4ccccc4)[C@H]21)C3(C)C [Taxotere, taxotere]	0.059
CCC1=C[C@@H]2CN(C1)Cc1c([nH]c3ccccc13)[C@@](C(=O)OC)(c1cc3c(cc1OC)N(C)[C@H]1[C@@](O)(C(=O)OC)[C@H](OC(C)=O)[C@]4(CC)C=CCN5CC[C@]31[C@@H]54)C2 [Navelbine, navelbine]	0.057
COc1cccc2c1C(=O)c1c(O)c3c(c(O)c1C2=O)C[C@@](O)(C(=O)CO)C[C@@H]3O[C@H]1C[C@H](N)[C@H](O)[C@H](C)O1 [ADR, adriamycin]	0.004

Value sought for every listed compound: IC50.
1. CC(=O)O[C@H]1C(=O)[C@@]2(C)[C@H]([C@H](OC(=O)c3ccccc3)[C@]3(O)C[C@H](OC(=O)[C@H](O)[C@@H](NC(=O)c4ccccc4)c4ccccc4)C(C)=C1C3(C)C)[C@]1(OC(C)=O)CO[C@@H]1C[C@@H]2O [TAXOL, taxol]
2. O=c1[nH]cc(F)c(=O)[nH]1 [5-FU, 5-fluoro-uracil]
3. Nc1nc2[nH]cc(CCc3ccc(C(=O)N[C@@H](CCC(=O)O)C(=O)O)cc3)c2c(=O)[nH]1 [Alimta, alimta]

Result:
0.0019
0.157
0.018
